EXPERIMENTAL_SYSTEM: T1, 4H3112-AA
T1 chain: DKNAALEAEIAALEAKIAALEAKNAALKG
TEST_PROTOCOL: two-hybrid library CCmax;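 further: natural log of median RNA to DNA barcode read ratio; higher means stronger binding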
EXPERIMENTAL_CONTEXT: mean of both orientations
EXPERIMENTAL_ENDPOINT: interaction score

Worked set:
DEIAALEAEIAALKAKNAALKAEIAALKG [4H122-AA]    -0.199
DENAALEAKIAALKAEIAALEAKNAALKG [4H1352-AA]    1.11
DKIAALEAKNAALEAKIAALEAEIAALKG [4H2466-AA]    -1.92

P. DKIAALEAEIAALEAENAALKAKIAALKG [4H2078-AA]
Q. DKIAALKAKIAALKAKNAALKAKNAALKG [4H2944-AA]
Request: Lab notebook, comparison: P versus Q , higher interaction score goes to which? Mark your answer with the label of the selected entry.
Response: Q
(Q: -0.15, P: -0.952)
